target_or_system: 5-hydroxytryptamine receptor 2A (Homo sapiens)
Sequence (P28223 whole entry): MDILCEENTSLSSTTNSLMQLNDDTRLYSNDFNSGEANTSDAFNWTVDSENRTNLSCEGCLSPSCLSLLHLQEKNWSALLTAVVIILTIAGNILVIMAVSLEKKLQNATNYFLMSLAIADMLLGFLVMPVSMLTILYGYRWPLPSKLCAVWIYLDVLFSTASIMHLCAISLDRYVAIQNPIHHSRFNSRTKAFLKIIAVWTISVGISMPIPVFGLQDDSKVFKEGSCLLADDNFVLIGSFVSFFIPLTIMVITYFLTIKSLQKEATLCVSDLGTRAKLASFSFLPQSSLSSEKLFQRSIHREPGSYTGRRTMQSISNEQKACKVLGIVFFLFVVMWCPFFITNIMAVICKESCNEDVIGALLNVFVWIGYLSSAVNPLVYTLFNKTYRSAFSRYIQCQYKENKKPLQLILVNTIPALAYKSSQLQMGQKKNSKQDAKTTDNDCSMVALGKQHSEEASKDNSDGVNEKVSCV
measurement_notes: Displacement of [3H]-DOI from recombinant human 5HT2AR transfected in human HEK293 cells incubated for 45 mins by radioligand binding assay
# Ki per record follows
value_type: Ki (nM)

> print(dat)
                       molecular.string  observed.result
1   FC(F)(F)CCc1cccc2c1CC[C@@H]1CNCCN21               20
2          CCCc1cncc2c1CC[C@@H]1CNCCN21             39.8
3          CCCc1ccnc2c1CC[C@@H]1CNCCN21             6.31
4  c1ccc(Cc2ccnc3c2CC[C@@H]2CNCCN32)cc1             1.26
5          CCCc1cccc2c1CC[C@@H]1CNCCN21             5.01

---

target_or_system: 5-HT2B receptor (Homo sapiens)
Sequence (P41595 whole entry): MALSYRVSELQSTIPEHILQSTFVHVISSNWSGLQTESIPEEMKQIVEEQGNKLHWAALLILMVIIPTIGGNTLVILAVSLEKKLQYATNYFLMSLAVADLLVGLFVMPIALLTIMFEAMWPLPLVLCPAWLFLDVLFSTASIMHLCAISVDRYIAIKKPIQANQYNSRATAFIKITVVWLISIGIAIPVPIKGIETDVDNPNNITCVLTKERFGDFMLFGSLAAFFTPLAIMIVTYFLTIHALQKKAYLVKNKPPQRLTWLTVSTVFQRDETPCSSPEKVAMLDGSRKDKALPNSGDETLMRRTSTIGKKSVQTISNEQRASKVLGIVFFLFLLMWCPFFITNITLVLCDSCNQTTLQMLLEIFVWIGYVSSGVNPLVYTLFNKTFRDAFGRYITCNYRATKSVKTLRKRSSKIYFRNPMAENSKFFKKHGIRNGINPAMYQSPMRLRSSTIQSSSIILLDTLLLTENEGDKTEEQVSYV
measurement_notes: Agonist activity at 5-HT2BR (unknown origin) transfected in human HEK293 cells at 10 uM by IP3 accumulation assay relative to control
Format: cell-based
test_conditions: HEK293 cells transfected with 5-HT2BR
# Emax at 10 µM per record follows
value_type: Emax at 10 µM (%)

> print(dat)
                        molecular.string  measurement.unit  observed.result
 1           Clc1ccnc2c1CC[C@@H]1CNCCN21                 %               62
 2            Cc1ccnc2c1CC[C@@H]1CNCCN21                 %               52
 3          COCc1ccnc2c1CC[C@@H]1CNCCN21                 %               38
 4   FC(F)(F)CCc1cccc2c1CC[C@@H]1CNCCN21                 %               48
 5   FC(F)(F)CCc1ccnc2c1CC[C@@H]1CNCCN21                 %               31
 6          CCCc1cccc2c1CC[C@@H]1CNCCN21                 %               82
 7     c1cc(C2CC2)c2c(n1)N1CCNC[C@H]1CC2                 %               34
 8          CCCc1ccnc2c1CC[C@@H]1CNCCN21                 %               54
 9            c1cc2c(cn1)N1CCNC[C@H]1CC2                 %               28
10           c1cnc2c(c1)CC[C@@H]1CNCCN21                 %               19
11       CC(C)Cc1ccnc2c1CC[C@@H]1CNCCN21                 %               22
12  c1ccc(Cc2ccnc3c2CC[C@@H]2CNCCN32)cc1                 %               25
13   c1cc(CC2CCC2)c2c(n1)N1CCNC[C@H]1CC2                 %               17

---

target_or_system: UniProt:P28223
measurement_notes: Agonist activity at 5-HT2AR (unknown origin) transfected in human HEK293 cells at 10 uM by IP3 accumulation assay relative to control
Assay type: cell-based
test_conditions: HEK293 cells transfected with 5-HT2AR
value_type: Emax at 10 µM (%)

> print(dat)
                       molecular.string     value.type  observed.result
1           Clc1ccnc2c1CC[C@@H]1CNCCN21  Emax at 10 µM               90
2   FC(F)(F)CCc1ccnc2c1CC[C@@H]1CNCCN21  Emax at 10 µM              134
3   FC(F)(F)CCc1cccc2c1CC[C@@H]1CNCCN21  Emax at 10 µM              114
4     c1cc(C2CC2)c2c(n1)N1CCNC[C@H]1CC2  Emax at 10 µM              117
5  c1ccc(Cc2ccnc3c2CC[C@@H]2CNCCN32)cc1  Emax at 10 µM              114
6          CCCc1cccc2c1CC[C@@H]1CNCCN21  Emax at 10 µM               74

---

measurement_notes: Half life in po dosed Sprague-Dawley rat
Assay type: ADME, organism-based
test_conditions: in vivo
value_type: half-life

> print(dat)
                      molecular.string  observed.result
1  FC(F)(F)CCc1ccnc2c1CC[C@@H]1CNCCN21            2.9 h

---

target_or_system: 5-hydroxytryptamine receptor 2B (Homo sapiens)
Sequence (P41595 whole entry): as above
measurement_notes: Agonist activity at 5-HT2BR (unknown origin) transfected in human HEK293 cells by IP3 accumulation assay
pEC50: −log10 of the molar value.
Label scheme for pEC50: lower than 7 is not fulfilled, 7 and above is fulfilled.

> print(dat)
                       molecular.string    label.value
1  c1ccc(Cc2cncc3c2CC[C@@H]2CNCCN32)cc1  not fulfilled
2       CC(C)Cc1ccnc2c1CC[C@@H]1CNCCN21  not fulfilled
3   FC(F)(F)CCc1cccc2c1CC[C@@H]1CNCCN21  not fulfilled
4     c1cc(C2CC2)c2c(n1)N1CCNC[C@H]1CC2      fulfilled
5  c1cc2c(c(CC3CCC3)n1)CC[C@@H]1CNCCN21  not fulfilled
6           Clc1ccnc2c1CC[C@@H]1CNCCN21      fulfilled
7           c1cc2c(cn1)CC[C@@H]1CNCCN21  not fulfilled
8            c1cc2c(cn1)N1CCNC[C@H]1CC2  not fulfilled

---

measurement_notes: Oral bioavailability in Sprague-Dawley rat
Format: ADME, organism-based
test_conditions: in vivo
value_type: bioavailability

> print(dat)
                      molecular.string  observed.result
1  FC(F)(F)CCc1ccnc2c1CC[C@@H]1CNCCN21              54%

---

target_or_system: 5-hydroxytryptamine receptor 2C (Homo sapiens)
Sequence (whole entry): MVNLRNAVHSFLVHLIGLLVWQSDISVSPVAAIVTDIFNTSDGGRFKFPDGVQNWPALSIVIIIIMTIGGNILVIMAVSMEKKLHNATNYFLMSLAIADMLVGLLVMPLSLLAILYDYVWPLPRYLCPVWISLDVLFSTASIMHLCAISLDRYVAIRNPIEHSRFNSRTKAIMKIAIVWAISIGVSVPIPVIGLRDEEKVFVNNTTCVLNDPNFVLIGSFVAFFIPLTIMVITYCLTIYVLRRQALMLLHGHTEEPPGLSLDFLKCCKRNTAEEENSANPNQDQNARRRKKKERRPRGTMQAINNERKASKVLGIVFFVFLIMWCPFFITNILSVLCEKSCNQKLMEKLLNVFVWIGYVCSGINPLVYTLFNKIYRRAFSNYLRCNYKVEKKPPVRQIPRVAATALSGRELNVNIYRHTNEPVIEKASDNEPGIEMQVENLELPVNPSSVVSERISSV
measurement_notes: Agonist activity at 5-HT2CR (unknown origin) transfected in human HEK293 cells at 10 uM by IP3 accumulation assay relative to control
Assay type: functional, cell-based
test_conditions: filed as agonist
value_type: Emax (%)

> print(dat)
                        molecular.string  value.type  measurement.unit  observed.result
 1       CC(C)Cc1ccnc2c1CC[C@@H]1CNCCN21        Emax                 %              102
 2  c1ccc(Cc2ccnc3c2CC[C@@H]2CNCCN32)cc1        Emax                 %              107
 3  c1ccc(Cc2cncc3c2CC[C@@H]2CNCCN32)cc1        Emax                 %              110
 4          CCCc1cncc2c1CC[C@@H]1CNCCN21        Emax                 %              106
 5          CCCc1ccnc2c1CC[C@@H]1CNCCN21        Emax                 %               99
 6           c1cnc2c(c1)CC[C@@H]1CNCCN21        Emax                 %               92
 7            Cc1ccnc2c1CC[C@@H]1CNCCN21        Emax                 %              102
 8     c1cc(C2CC2)c2c(n1)N1CCNC[C@H]1CC2        Emax                 %               99
 9            c1cc2c(cn1)N1CCNC[C@H]1CC2        Emax                 %               98
10   FC(F)(F)CCc1cccc2c1CC[C@@H]1CNCCN21        Emax                 %               95
11          COCc1ccnc2c1CC[C@@H]1CNCCN21        Emax                 %              109
12           Clc1ccnc2c1CC[C@@H]1CNCCN21        Emax                 %               99
13   FC(F)(F)CCc1ccnc2c1CC[C@@H]1CNCCN21        Emax                 %               97
14   c1cc(CC2CCC2)c2c(n1)N1CCNC[C@H]1CC2        Emax                 %              108
15          CCCc1cccc2c1CC[C@@H]1CNCCN21        Emax                 %              107
